# System: VchCAST RNA-guided transposition machinery (E. coli BL21(DE3) host, lacZ target)
# assay.name: relative integration efficiency (T-LR orientation) vs wild-type transposon end (log2 (normalized fold change)); transposon end mutated: right end (5 bp flank + 75 bp right end); higher = more efficient transposition
Below, each of the sequences is paired with its reported relative integration efficiency (log2) value.
I only need the number, thanks.

- entry.sequence: "ACATTTGTTGATACAACCATCCCCTGATAATTACACCCATCCCGTGATAATTATCACACCCATCCCGTGATATTGCCTCTGATCATAGTCAGACCAACATTGCTACGACCCGTATTCGCACCGACAC"
  relative integration efficiency (log2): -3.86

// next item, relative integration efficiency (log2) requested
// query # query: relative integration efficiency (log2) of entry ACATTTGTTGATACAACCATAAAATGATAATTACACCCATAAATTGATAATTATCACACCCATAAATTGATATTGCCTCTTAACACCCGTATTACTTCATAATCGTTTGTAATTCAAGCACCGACAC
// result 1.41

----------
# Test system: VchCAST RNA-guided transposition machinery (E. coli BL21(DE3) host, lacZ target)
# assay.name: relative integration efficiency (T-LR orientation) vs wild-type transposon end (log2 (normalized fold change)); transposon end mutated: right end (5 bp flank + 75 bp right end); higher = more efficient transposition
property: relative integration efficiency (log2)

- entry.sequence: "ACATTTGTTGATACAACCATAAAATGATAATTACAAACATAAATTGATAATTATCACACCCATAAATTGATATTGCCTCTGATCATAGTCAGACCAACATTGCTACGACCCGTATTCGCACCGACAC"
  relative integration efficiency (log2): -0.426
- entry.sequence: "ACATTTGTTGATACAACGATAAAATGATAATTACACCGATAAATTGATAATTATCACACCGATAAATTGATATTGCCTCTGATCATAGTCAGACCAACATTGCTACGACCCGTATTCGCACCGACAC"
  relative integration efficiency (log2): 0.086
- entry.sequence: "ACATTTGTTGATACAACCAGAAAATGATAATTACACCCAGAAATTGATAATTATCACACCCAGAAATTGATATTGCCTCTGATCATAGTCAGACCAACATTGCTACGACCCGTATTCGCACCGACAC"
  relative integration efficiency (log2): -3.58
- entry.sequence: "ACATTTGTTGATACAACCATAAAATGATAATTTGTGCCATAAATTGATAATTATCACACCCATAAATTGATATTGCCTCTGATCATAGTCAGACCAACATTGCTACGACCCGTATTCGCACCGACAC"
  relative integration efficiency (log2): -1.18
- entry.sequence: "ACATTTGTTGATACAACCATAAAATGATAATTAACAAACGCCCGGTCGCCGGCTCAACAAACGCCCGGTCGCGGTACTCTGATCATAGTCAGACCAACATTGCTACGACCCGTATTCGCACCGACAC"
  relative integration efficiency (log2): 1.12
- entry.sequence: "ACATTTGTTGATACAACCATAAAATGATAATTACACCCATAAATTGATAATTATCAACAAACGCCCGGTCGCGGTACTCTGATCATAGTCAGACCAACATTGCTACGACCCGTATTCGCACCGACAC"
  relative integration efficiency (log2): 2.66
- entry.sequence: "CAAAATGTAAAAAAAACCATACGTTGATTTTACGAAACCATACGCTGAAATAAAAACACCCATAAATTGATATTGCTTATAAAGTGTACAACACTTGAGAAAGTTTACTACAGGTATGCACCGACAC"
  relative integration efficiency (log2): "< -10"
- entry.sequence: "ACATTTGTTGATACAACCATAAAATGCGAATTACACCCATAAATTGATAATTATCACACCCATAAATTGATATTGCCTCTGATCATAGTCAGACCAACATTGCTACGACCCGTATTCGCACCGACAC"
  relative integration efficiency (log2): -0.35

// query # query: relative integration efficiency (log2) of entry ACATTTGTGGATACAACCATAAAATGATAATTACACCCATAAATGGATAATTATCACACCCAATTTAACTATAACGCTCTGATCATAGTCAGACCAACATTGCTACGACCCGTATTCGCACCGACAC
// result 2.14

// query # query: relative integration efficiency (log2) of entry ACATTTGTTGATACCACCATCAAATGGTAATTCCACCCATAAATTGATAATTATCACACCCAATTTAACTATAACGCTCTGATCATAGTCAGACCAACATTGCTACGACCCGTATTCGCACCGACAC
// result -0.205

// query # query: relative integration efficiency (log2) of entry ACATTTGTTGATACAACCATAAAATGATAAGGACACCCATAAATTGATAATTATCACACCCATAAATTGATATTGCCTCTGATCATAGTCAGACCAACATTGCTACGACCCGTATTCGCACCGACAC
// result -0.358
